# procedure.summary: Biodistribution in BxPC3-luc tumor-bearing mice
# Assay type: in vivo, BALB/c nu/nu mice
# reported.conditions: female, BALB/c nu/nu, pancreas, iv, total radioactivity; 1 h, blocking: co-injection of IPLPPPRRPFFK 1 mg/mouse; read-out: Biodistribution, Pancreas
Where a SMILES comes first, the peptide text is derived from it. The star is where a group is joined. DOTA = O=C(O)CN1CCN(CC(=O)O)CCN(CC(=O)*)CCN(CC(=O)O)CC1; AEEA = NCCOCCOCC(=O)O
measurement.name: tissue uptake at 1 h (%ID/g)
Quick note: give the figure in %ID/g, leave out the unit.

[in] Name the recorded tissue uptake at 1 h for CC[C@H](C)[C@H](NC(=O)COCCOCCNC(=O)CN1CCN(CC(=O)O)CCN(CC(=O)O)CCN(CC(=O)O)CC1)C(=O)N1CCC[C@H]1C(=O)N[C@@H](CC(C)C)C(=O)N1CCC[C@H]1C(=O)N1CCC[C@H]1C(=O)N1CCC[C@H]1C(=O)N[C@@H](CCCNC(=N)N)C(=O)N[C@@H](CCCNC(=N)N)C(=O)N1CCC[C@H]1C(=O)N[C@@H](Cc1ccccc1)C(=O)N[C@@H](Cc1ccccc1)C(=O)N[C@@H](CCCCN)C(=O)O [[^67Ga]27, [^67Ga]Ga-DOTA-EG2-IPLPPPRRPFFK, metal not drawn] ({DOTA-AEEA}-IPLPPPRRPFFK-OH) .
[out] 0.21

###

# procedure.summary: Biodistribution in BxPC3-luc tumor-bearing mice
# Format: in vivo, BALB/c nu/nu mice
# reported.conditions: female, BALB/c nu/nu, mouse, brain, iv, 74 kBq, total radioactivity; 10 min post-injection, i.v.; read-out: Biodistribution, Brain
Where a SMILES comes first, the peptide text is derived from it. The star is where a group is joined. DOTA = O=C(O)CN1CCN(CC(=O)O)CCN(CC(=O)*)CCN(CC(=O)O)CC1; AEEA = NCCOCCOCC(=O)O
measurement.name: tissue uptake at 10 min (%ID/g)
Quick note: give the figure in %ID/g, leave out the unit.

[in] Name the recorded tissue uptake at 10 min for CC[C@H](C)[C@H](NC(=O)COCCOCCNC(=O)CN1CCN(CC(=O)O)CCN(CC(=O)O)CCN(CC(=O)O)CC1)C(=O)N1CCC[C@H]1C(=O)N[C@@H](CC(C)C)C(=O)N1CCC[C@H]1C(=O)N1CCC[C@H]1C(=O)N1CCC[C@H]1C(=O)N[C@@H](CCCNC(=N)N)C(=O)N[C@@H](CCCNC(=N)N)C(=O)N1CCC[C@H]1C(=O)N[C@@H](Cc1ccccc1)C(=O)N[C@@H](Cc1ccccc1)C(=O)N[C@@H](CCCCN)C(=O)O [[^67Ga]27, [^67Ga]Ga-DOTA-EG2-IPLPPPRRPFFK, metal not drawn] ({DOTA-AEEA}-IPLPPPRRPFFK-OH) .
[out] 0.13

###

# procedure.summary: Biodistribution in BxPC3-luc tumor-bearing mice
# Type: in vivo, BALB/c nu/nu mice
# reported.conditions: female, BALB/c nu/nu, mouse, iv, 74 kBq, total radioactivity; 10 min post-injection, i.v.; BxPC3-luc tumor; read-out: Biodistribution, Tumor
Where a SMILES comes first, the peptide text is derived from it. The star is where a group is joined. DOTA = O=C(O)CN1CCN(CC(=O)O)CCN(CC(=O)*)CCN(CC(=O)O)CC1; AEEA = NCCOCCOCC(=O)O
measurement.name: tissue uptake at 10 min (%ID/g)
Quick note: give the figure in %ID/g, leave out the unit.

[in] Name the recorded tissue uptake at 10 min for CC[C@H](C)[C@H](NC(=O)COCCOCCNC(=O)CN1CCN(CC(=O)O)CCN(CC(=O)O)CCN(CC(=O)O)CC1)C(=O)N1CCC[C@H]1C(=O)N[C@@H](CC(C)C)C(=O)N1CCC[C@H]1C(=O)N1CCC[C@H]1C(=O)N1CCC[C@H]1C(=O)N[C@@H](CCCNC(=N)N)C(=O)N[C@@H](CCCNC(=N)N)C(=O)N1CCC[C@H]1C(=O)N[C@@H](Cc1ccccc1)C(=O)N[C@@H](Cc1ccccc1)C(=O)N[C@@H](CCCCN)C(=O)O [[^67Ga]27, [^67Ga]Ga-DOTA-EG2-IPLPPPRRPFFK, metal not drawn] ({DOTA-AEEA}-IPLPPPRRPFFK-OH) .
[out] 3.11

###

# procedure.summary: Biodistribution in BxPC3-luc tumor-bearing mice
# Format: in vivo, BALB/c nu/nu mice
# reported.conditions: female, BALB/c nu/nu, iv, total radioactivity; 1 h, blocking: co-injection of IPLPPPRRPFFK 1 mg/mouse; BxPC3-luc tumor; read-out: Biodistribution, Tumor
Where a SMILES comes first, the peptide text is derived from it. The star is where a group is joined. DOTA = O=C(O)CN1CCN(CC(=O)O)CCN(CC(=O)*)CCN(CC(=O)O)CC1; AEEA = NCCOCCOCC(=O)O
measurement.name: tissue uptake at 1 h
The reply should read as a number followed by its unit.

[in] Name the recorded tissue uptake at 1 h for CC[C@H](C)[C@H](NC(=O)COCCOCCNC(=O)CN1CCN(CC(=O)O)CCN(CC(=O)O)CCN(CC(=O)O)CC1)C(=O)N1CCC[C@H]1C(=O)N[C@@H](CC(C)C)C(=O)N1CCC[C@H]1C(=O)N1CCC[C@H]1C(=O)N1CCC[C@H]1C(=O)N[C@@H](CCCNC(=N)N)C(=O)N[C@@H](CCCNC(=N)N)C(=O)N1CCC[C@H]1C(=O)N[C@@H](Cc1ccccc1)C(=O)N[C@@H](Cc1ccccc1)C(=O)N[C@@H](CCCCN)C(=O)O [[^67Ga]27, [^67Ga]Ga-DOTA-EG2-IPLPPPRRPFFK, metal not drawn] ({DOTA-AEEA}-IPLPPPRRPFFK-OH) .
[out] 0.96 %ID/g

###

# procedure.summary: Biodistribution in BxPC3-luc tumor-bearing mice
# Type: in vivo, BALB/c nu/nu mice
# reported.conditions: female, BALB/c nu/nu, mouse, muscle, iv, 74 kBq, total radioactivity; 10 min post-injection, i.v.; read-out: Biodistribution, Muscle
Where a SMILES comes first, the peptide text is derived from it. The star is where a group is joined. DOTA = O=C(O)CN1CCN(CC(=O)O)CCN(CC(=O)*)CCN(CC(=O)O)CC1; AEEA = NCCOCCOCC(=O)O
measurement.name: tissue uptake at 10 min (%ID/g)
Quick note: give the figure in %ID/g, leave out the unit.

[in] Name the recorded tissue uptake at 10 min for CC[C@H](C)[C@H](NC(=O)COCCOCCNC(=O)CN1CCN(CC(=O)O)CCN(CC(=O)O)CCN(CC(=O)O)CC1)C(=O)N1CCC[C@H]1C(=O)N[C@@H](CC(C)C)C(=O)N1CCC[C@H]1C(=O)N1CCC[C@H]1C(=O)N1CCC[C@H]1C(=O)N[C@@H](CCCNC(=N)N)C(=O)N[C@@H](CCCNC(=N)N)C(=O)N1CCC[C@H]1C(=O)N[C@@H](Cc1ccccc1)C(=O)N[C@@H](Cc1ccccc1)C(=O)N[C@@H](CCCCN)C(=O)O [[^67Ga]27, [^67Ga]Ga-DOTA-EG2-IPLPPPRRPFFK, metal not drawn] ({DOTA-AEEA}-IPLPPPRRPFFK-OH) .
[out] 0.86

###

# procedure.summary: Biodistribution in BxPC3-luc tumor-bearing mice
# Type: in vivo, BALB/c nu/nu mice
# reported.conditions: female, BALB/c nu/nu, mouse, large intestine, iv, 74 kBq, total radioactivity; 1 h post-injection, i.v.; read-out: Biodistribution, Large intestine
Where a SMILES comes first, the peptide text is derived from it. The star is where a group is joined. DOTA = O=C(O)CN1CCN(CC(=O)O)CCN(CC(=O)*)CCN(CC(=O)O)CC1; AEEA = NCCOCCOCC(=O)O
measurement.name: tissue uptake at 1 h
The reply should read as a number followed by its unit.

[in] Name the recorded tissue uptake at 1 h for CC[C@H](C)[C@H](NC(=O)COCCOCCNC(=O)CN1CCN(CC(=O)O)CCN(CC(=O)O)CCN(CC(=O)O)CC1)C(=O)N1CCC[C@H]1C(=O)N[C@@H](CC(C)C)C(=O)N1CCC[C@H]1C(=O)N1CCC[C@H]1C(=O)N1CCC[C@H]1C(=O)N[C@@H](CCCNC(=N)N)C(=O)N[C@@H](CCCNC(=N)N)C(=O)N1CCC[C@H]1C(=O)N[C@@H](Cc1ccccc1)C(=O)N[C@@H](Cc1ccccc1)C(=O)N[C@@H](CCCCN)C(=O)O [[^67Ga]27, [^67Ga]Ga-DOTA-EG2-IPLPPPRRPFFK, metal not drawn] ({DOTA-AEEA}-IPLPPPRRPFFK-OH) .
[out] 0.13 %ID/g

###

# procedure.summary: Biodistribution in BxPC3-luc tumor-bearing mice
# Assay type: in vivo, BALB/c nu/nu mice
# reported.conditions: female, BALB/c nu/nu, small intestine, iv, total radioactivity; 1 h, blocking: co-injection of IPLPPPRRPFFK 1 mg/mouse; read-out: Biodistribution, Small intestine
Where a SMILES comes first, the peptide text is derived from it. The star is where a group is joined. DOTA = O=C(O)CN1CCN(CC(=O)O)CCN(CC(=O)*)CCN(CC(=O)O)CC1; AEEA = NCCOCCOCC(=O)O
measurement.name: tissue uptake at 1 h (%ID/g)
Quick note: give the figure in %ID/g, leave out the unit.

[in] Name the recorded tissue uptake at 1 h for CC[C@H](C)[C@H](NC(=O)COCCOCCNC(=O)CN1CCN(CC(=O)O)CCN(CC(=O)O)CCN(CC(=O)O)CC1)C(=O)N1CCC[C@H]1C(=O)N[C@@H](CC(C)C)C(=O)N1CCC[C@H]1C(=O)N1CCC[C@H]1C(=O)N1CCC[C@H]1C(=O)N[C@@H](CCCNC(=N)N)C(=O)N[C@@H](CCCNC(=N)N)C(=O)N1CCC[C@H]1C(=O)N[C@@H](Cc1ccccc1)C(=O)N[C@@H](Cc1ccccc1)C(=O)N[C@@H](CCCCN)C(=O)O [[^67Ga]27, [^67Ga]Ga-DOTA-EG2-IPLPPPRRPFFK, metal not drawn] ({DOTA-AEEA}-IPLPPPRRPFFK-OH) .
[out] 0.66
